Data credit: the supplement of paper PMC10567573

B1: MYL5 (parent)
chain: FQFASIDVAGNLDYKALSYVITHG

variants of: B1; assay: protein stability index of a GFP-peptide fusion (GPS, HEK-293T) (PSI 1-6); higher = more stable; conditions: c terminus: a fixed tail appended;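 note: lentivirally expressed fusions sorted by FACS into six bins by GFP to DsRed ratio, PSI derived from sequencing read proportions per bin multiplied by bin number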
Class field: derived from protein stability index; ranges low-valued (below 2), mid-valued (2 to below 3), high-valued (3 or more)

Enquiry: Lab log: T22K — assign protein stability index category
Return: mid-valued

Enquiry: Moving on to N11S
Return: high-valued

Enquiry: Moving on to N11Q
Return: high-valued

Enquiry: Moving on to L17A
Return: mid-valued

Enquiry: Moving on to K15E
Return: low-valued

Enquiry: Moving on to D13V
Return: mid-valued

Enquiry: Moving on to D7A
Return: mid-valued

Enquiry: Moving on to K15A
Return: high-valued

Enquiry: Moving on to Q2L
Return: mid-valued

Enquiry: Moving on to V20D
Return: low-valued

Enquiry: Moving on to T22C
Return: mid-valued

Enquiry: Moving on to Y14W
Return: high-valued

Enquiry: Moving on to F1C
Return: high-valued

Enquiry: Moving on to N11E
Return: mid-valued

Enquiry: Moving on to F3R
Return: low-valued

Enquiry: Moving on to Y19Q
Return: high-valued

Enquiry: Moving on to D7I
Return: high-valued

Enquiry: Moving on to L12V
Return: mid-valued

Enquiry: Moving on to V8M
Return: mid-valued

Enquiry: Moving on to L17Y
Return: mid-valued

Enquiry: Moving on to S5C
Return: low-valued

Enquiry: Moving on to Q2P
Return: high-valued

Enquiry: Moving on to Y19R
Return: mid-valued

Enquiry: Moving on to I21G
Return: mid-valued

Enquiry: Moving on to I6D
Return: low-valued

Enquiry: Moving on to Q2H
Return: mid-valued

Enquiry: Moving on to Y19W
Return: mid-valued

Enquiry: Moving on to A4P
Return: mid-valued

Enquiry: Moving on to S18I
Return: mid-valued

Enquiry: Moving on to L12D
Return: low-valued

Enquiry: Moving on to F1H
Return: low-valued

Enquiry: Moving on to H23T
Return: mid-valued

Enquiry: Moving on to K15R
Return: mid-valued

Enquiry: Moving on to D7E
Return: mid-valued

Enquiry: Moving on to I6E
Return: low-valued

Enquiry: Moving on to L17G
Return: mid-valued

Enquiry: Moving on to I6A
Return: mid-valued

Enquiry: Moving on to L12Y
Return: mid-valued

Enquiry: Moving on to V20N
Return: low-valued

Enquiry: Moving on to I21Y
Return: low-valued

Enquiry: Moving on to S18D
Return: low-valued

Enquiry: Moving on to I21D
Return: mid-valued

Enquiry: Moving on to D13N
Return: high-valued

Enquiry: Moving on to A4N
Return: mid-valued

Enquiry: Moving on to K15T
Return: high-valued

Enquiry: Moving on to K15D
Return: mid-valued

Enquiry: Moving on to F3M
Return: mid-valued

Enquiry: Moving on to V8D
Return: high-valued

Enquiry: Moving on to A9N
Return: high-valued

Enquiry: Moving on to F1N
Return: low-valued

Enquiry: Moving on to F3H
Return: mid-valued

Enquiry: Moving on to L12Q
Return: high-valued

Enquiry: Moving on to L17S
Return: high-valued

Enquiry: Moving on to V20T
Return: mid-valued

Enquiry: Moving on to K15N
Return: mid-valued

Enquiry: Moving on to V20F
Return: high-valued

Enquiry: Moving on to G10H
Return: low-valued

Enquiry: Moving on to A9F
Return: mid-valued

Enquiry: Moving on to L17W
Return: mid-valued

Enquiry: Moving on to A4S
Return: mid-valued

Enquiry: Moving on to V8R
Return: mid-valued

Enquiry: Moving on to K15H
Return: mid-valued

Enquiry: Moving on to D7R
Return: low-valued

Enquiry: Moving on to L12C
Return: low-valued

Enquiry: Moving on to A16Q
Return: mid-valued

Enquiry: Moving on to V20S
Return: high-valued
